- Test system: human LINE-1
- Protocol Details: Human LINE-1 retrotransposition assay (HeLa cell-based dual-luciferase reporter, plasmid pYX017)
- Condition Notes: Homo sapiens; HeLa cells, 72 h incubation, Firefly/Renilla luciferase; experiment 3; read-out: Human LINE-1 IC50, Exp. 3
Where a name gives a salt, the structure may show the parent alone.
Property: IC50

Quote human LINE-1 IC50 for entry Nc1ccn([C@@H]2CS[C@H](CO)O2)c(=O)n1 [Lamivudine] .
570 nM

Quote human LINE-1 IC50 for entry C#C[C@@]1(CO)C=C[C@H](n2cc(C)c(=O)[nH]c2=O)O1 [Censavudine, 4′-ethynylstavudine] .
80 nM

Quote human LINE-1 IC50 for entry CC(C)OC(=O)OCOP(=O)(CO[C@H](C)Cn1cnc2c(N)ncnc21)OCOC(=O)OC(C)C [Tenofovir disoproxil] .
140 nM

Quote human LINE-1 IC50 for entry Nc1nc(=O)n([C@@H]2CS[C@H](CO)O2)cc1F [Emtricitabine] .
1390 nM

Quote human LINE-1 IC50 for entry Nc1nc(NC2CC2)c2ncn([C@H]3C=C[C@@H](CO)C3)c2n1 [Abacavir sulfate] .
16800 nM

Quote human LINE-1 IC50 for entry Nc1ccn([C@H]2CO[C@@H](CO)S2)c(=O)n1 [Apricitabine] .
7690 nM

Quote human LINE-1 IC50 for entry Nc1nc(=O)n([C@@H]2C=C[C@H](CO)O2)cc1F [Elvucitabine] .
80 nM

Quote human LINE-1 IC50 for entry Cc1cn([C@H]2C=C[C@@H](CO)O2)c(=O)[nH]c1=O [Stavudine] .
780 nM
